# assayed_system: Tyrosine-protein kinase Yes (Homo sapiens)
# assay_explanation: qHTS for small molecule inhibitors of Yes1 kinase: Primary Screen (AID 686947); note: nearly all actives have a fitted effect of over 60% in size
# condition_description: Yes1 kinase biochemical qHTS inhibition; series mostly up to 76.9 µM
Results filed as inconclusive are left out. Calls of active or inactive are those of the source. Calls come from the whole dose curve; as a rule, active = well fitted inhibition curve with a large enough effect; inconclusive = small, poorly fitted or top-dose-only effect; inactive = no such curve, though single readings can be large or run the other way.
Labels: active, inactive

# compound, class_label
rows = [
    ("CC(C)C[C@H](NC(=O)c1cc2ccccc2s1)C(=O)N1CCN(C(=O)[C@H](CO)NS(=O)(=O)c2ccc(Cl)cc2Cl)CC1", "inactive"),
    ("CCCCCCCCCCCCCC(=O)N[C@H](CO)[C@H](O)c1ccc([N+](=O)[O-])cc1", "inactive"),
    ("CN(C)CCCNC(=O)c1ccc(-c2cc(O)c3ncccc3c2)cc1", "active"),
    ("COc1cc2nccc(Oc3ccc(NC(=O)Nc4cc(C)on4)c(Cl)c3)c2cc1OC", "active"),
    ("CN1C(=O)C(Cc2c[nH]c3ccccc23)NC1=S (stereo unspecified)", "inactive"),
    ("Cc1nn(Cc2ccccc2Cl)c(C)c1CN(C)CC(O)COc1ccc(Cl)cc1 (stereo unspecified)", "inactive"),
    ("CC(=O)Nc1cccc(-n2c(=O)n(C3CC3)c(=O)c3c(Nc4ccc(I)cc4F)n(C)c(=O)c(C)c32)c1", "inactive"),
    ("CCc1cc(-c2n[nH]c(C)c2-c2ccc3c(c2)OCCO3)c(O)cc1O", "active"),
    ("Cn1cc(-c2ccc3nnc(Sc4ccc5ncccc5c4)n3n2)cn1", "inactive"),
    ("COc1cccc(OC)c1-c1cc(C(=O)NC2(C(=O)O)C3CC4CC(C3)CC2C4)nn1-c1ccnc2cc(Cl)ccc12 (stereo unspecified)", "inactive"),
    ("CCCCc1ccc(NS(=O)(=O)c2ccc(C)c(C(=O)N3CCN(c4cccc(C)c4C)CC3)c2)cc1", "inactive"),
]

* * *

# Test system: MCC-26
# assay_explanation: qHTS assay to identify novel small-molecules to repurpose for Merkel cell carcinoma treatment (AID 1296009); note: nearly all actives have a fitted effect of over 60% in size; note: potency is the fitted concentration of half-maximal effect
# condition_description: MCC and control cell lines, CellTiter-Glo viability, 72 h; series mostly up to 46 µM
Results filed as inconclusive are left out. Calls of active or inactive are those of the source. Calls follow the shape of the dose curve; as a rule, active = well fitted inhibition curve with a large enough effect; inconclusive = small, poorly fitted or top-dose-only effect; inactive = flat fitted curve, though single readings scatter.

# compound, Potency
measured = [
    ("COc1ccc(-c2cc(=O)c3c(O)cc(O[C@@H]4O[C@H](CO[C@@H]5O[C@@H](C)[C@H](O)[C@@H](O)[C@@H]5O)[C@@H](O)[C@H](O)[C@@H]4O)cc3o2)cc1O", "inactive"),
    ("CN(C)S(=O)(=O)c1ccc2c(c1)C(=Cc1cc3c([nH]1)CCCC3)C(=O)N2", "inactive"),
    ("CC(C)Oc1cc(Nc2nc(N[C@@H](C)c3ccc(F)cn3)ncc2Cl)[nH]n1", "14.8 µM (active)"),
    ("Cc1nn(Cc2ccccc2Cl)c(C)c1CN(C)CC(O)COc1ccc(Cl)cc1 (stereo not drawn)", "inactive"),
    ("O=C(O)c1nc(=O)[nH]c(=O)[nH]1", "inactive"),
    ("O=C(C=Cc1ccc(O)cc1)c1ccc(O)cc1O", "inactive"),
    ("CC1(C)[C@H]2CC[C@]3(C)[C@@H](C(=O)C=C4[C@@H]5C[C@@](C)(C(=O)O)CC[C@]5(C)CC[C@]43C)[C@@]2(C)CC[C@@H]1O", "inactive"),
    ("O=C(O)Cc1cccc(OCCCN(Cc2cccc(C(F)(F)F)c2Cl)CC(c2ccccc2)c2ccccc2)c1", "26.4 µM (active)"),
]
